Target: human FXR (NR1H4) (Homo sapiens (Human), UniProt Q96RI1)
Sequence (Q96RI1 whole entry): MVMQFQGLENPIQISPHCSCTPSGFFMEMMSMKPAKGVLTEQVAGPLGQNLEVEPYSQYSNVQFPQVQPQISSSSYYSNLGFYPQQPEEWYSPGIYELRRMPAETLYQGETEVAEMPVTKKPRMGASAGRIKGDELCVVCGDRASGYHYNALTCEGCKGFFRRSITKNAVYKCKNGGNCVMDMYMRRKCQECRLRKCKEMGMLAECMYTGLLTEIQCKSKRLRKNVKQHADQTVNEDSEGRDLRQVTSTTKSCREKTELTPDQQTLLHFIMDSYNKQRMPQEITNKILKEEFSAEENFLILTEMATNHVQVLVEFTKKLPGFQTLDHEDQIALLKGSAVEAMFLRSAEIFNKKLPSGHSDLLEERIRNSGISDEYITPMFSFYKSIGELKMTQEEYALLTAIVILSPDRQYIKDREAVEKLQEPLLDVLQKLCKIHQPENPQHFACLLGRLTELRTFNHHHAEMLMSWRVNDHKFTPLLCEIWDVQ
Experiment: Human FXR (NR1H4) Assay (luciferase reporter, Indigo Bioscience kit); on Efficacy (%): efficacy normalized to CDCA set as 100%
Assay type: cell-based
Settings: read-out: Efficacy (%)
Readout Label: Emax (%)

[
  {
    "Molecule": "CC[C@H]1[C@@H](O)[C@@H]2[C@H](CC[C@]3(C)[C@@H]([C@H](C)C/C=C/c4ccc(C(C)C(=O)O)cc4)CC[C@@H]23)[C@@]2(C)CC[C@@H](O)C[C@@H]12 (stereo partly drawn) [Example 16]",
    "Numeric Value": 248
  },
  {
    "Molecule": "CC[C@H]1[C@@H](O)[C@@H]2[C@H](CC[C@]3(C)[C@@H]([C@H](C)C/C=C/c4ccccc4C(=O)OC)CC[C@@H]23)[C@@]2(C)CC[C@@H](O)C[C@@H]12 [Example 1]",
    "Numeric Value": 217
  },
  {
    "Molecule": "CC[C@H]1[C@@H](O)[C@@H]2[C@H](CC[C@]3(C)[C@@H]([C@H](C)Cc4nc5cccc(C(=O)OC)c5[nH]4)CC[C@@H]23)[C@@]2(C)CC[C@@H](O)C[C@@H]12 [Example 31]",
    "Numeric Value": 34
  }
]

* * *

Target: human FXR (NR1H4) (Homo sapiens (Human))
Test: Human FXR (NR1H4) Assay (luciferase reporter, Indigo Bioscience kit)
Conditions: FXR agonistic potency range; CHO reporter cells expressing human NR1H4, 22 hours incubation
Procedure: Assays Human FXR (NR1H4) Assay Determination of a ligand mediated Gal4 promoter driven transactivation to quantify ligand binding mediated activation of FXR. […] The principle application of this reporter assay system is to quantify functional activity of human FXR. […] Luminescence intensity of the reaction is quantified using a plate-reading luminometer, Envision. […] Cells were incubated for additional 22 hours before luciferase activities were measured. […] Read time may be 0.5 second (500 mSec) per well.
Entries and their EC50 values follow.

[
  {
    "Compound": "CC[C@H]1[C@@H](O)[C@@H]2[C@H](CC[C@]3(C)[C@@H]([C@H](C)C/C=C/c4cnccc4C(=O)O)CC[C@@H]23)[C@@]2(C)CC[C@@H](O)C[C@@H]12 [Example 28]",
    "EC50": "0.1 to 1 µM"
  },
  {
    "Compound": "CC[C@H]1[C@@H](O)[C@@H]2[C@H](CC[C@]3(C)[C@@H]([C@H](C)C/C=C/c4cccc(C(=O)O)c4)CC[C@@H]23)[C@@]2(C)CC[C@@H](O)C[C@@H]12 [Example 22]",
    "EC50": "1 to 10 µM"
  },
  {
    "Compound": "CC[C@H]1[C@@H](O)[C@@H]2[C@H](CC[C@]3(C)[C@@H]([C@H](C)CC4CC4c4ccc(C(=O)O)cc4)CC[C@@H]23)[C@@]2(C)CC[C@@H](O)C[C@@H]12 (some centres unmarked) [Example 34]",
    "EC50": "1 to 10 µM"
  },
  {
    "Compound": "CC[C@H]1[C@@H](O)[C@@H]2[C@H](CC[C@]3(C)[C@@H]([C@H](C)CCCc4cc(F)c(O)c(F)c4)CC[C@@H]23)[C@@]2(C)CC[C@@H](O)C[C@@H]12 [Example 5]",
    "EC50": "1 to 10 µM"
  },
  {
    "Compound": "CC[C@H]1[C@@H](O)[C@@H]2[C@H](CC[C@]3(C)[C@@H]([C@H](C)C/C=C/c4ccc(C(=O)O)c(O)c4)CC[C@@H]23)[C@@]2(C)CC[C@@H](O)C[C@@H]12 [Example 13]",
    "EC50": "0.1 to 1 µM"
  }
]
